- target_system: β-Adrenergic β1 (Homo sapiens)
- Sequence (P08588 whole entry): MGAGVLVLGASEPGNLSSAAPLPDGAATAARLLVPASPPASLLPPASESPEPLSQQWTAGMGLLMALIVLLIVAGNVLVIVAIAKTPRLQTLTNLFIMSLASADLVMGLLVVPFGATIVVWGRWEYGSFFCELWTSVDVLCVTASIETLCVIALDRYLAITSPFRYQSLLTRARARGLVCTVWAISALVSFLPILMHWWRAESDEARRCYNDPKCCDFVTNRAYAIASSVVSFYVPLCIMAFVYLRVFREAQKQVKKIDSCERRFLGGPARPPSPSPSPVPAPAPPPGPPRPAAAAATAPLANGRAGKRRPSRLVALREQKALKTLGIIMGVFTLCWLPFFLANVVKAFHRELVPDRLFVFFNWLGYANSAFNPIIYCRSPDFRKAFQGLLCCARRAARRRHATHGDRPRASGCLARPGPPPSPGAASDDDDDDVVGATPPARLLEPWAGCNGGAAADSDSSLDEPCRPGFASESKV
pKi: −log10 of the molar value.
value_type: pKi

Give its pKi value. Item: CN1CCc2c(c3cccc4c3n2Cc2ccccc2O4)C1 [Compound 13b]
< 5.00

* * *

Ki, Sigma σ2 (Homo sapiens, UniProt Q5BJF2): measured values
One number for each entry, in nM.

compound="CN1CCc2c(c3cccc4c3n2Cc2ccccc2O4)C1 [Compound 13b]" reading=1810
compound="CN1CCc2c(c3cccc4c3n2-c2ccccc2CC4)C1 [Compound 6a, reference compound]" reading=2230

Okay, next one:
Name the reported Ki value associated with the compound CN1CCc2c(c3cccc4c3n2Cc2ccccc2C4)C1 [Compound 13a]
520
